Entry source: patent US10413535B2

test: Toxicokinetics in 13-week topical ocular rabbit study; conditions: male, New Zealand White, in vivo, topical or ocular, 50 mg/mL/occasion, male rabbits, 50 mg/mL, 6 daily doses, Week 4, read-out: AUC0-1
MEASUREMENT KIND: AUC(0-t)

Look up and state reported AUC(0-t) for Cc1ccccc1OCC(=O)N[C@@H](CC(C)C)C(=O)N[C@@H](Cc1ccc(OC(=O)N2CCC(C(N)=O)CC2)cc1)C(=O)O
17.9 ng·h/mL

----------
assay: Toxicokinetics in 13-week topical ocular rabbit study; settings: male, New Zealand White, in vivo, topical or ocular, 50 mg/mL/occasion, male rabbits, 50 mg/mL, 6 daily doses, Week 4, after the first daily dose
MEASUREMENT KIND: Cmax (ng/mL)
Numbers only, in ng/mL.

Look up and state reported Cmax for Cc1ccccc1OCC(=O)N[C@@H](CC(C)C)C(=O)N[C@@H](Cc1ccc(OC(=O)N2CCC(C(N)=O)CC2)cc1)C(=O)O [GW559090]
80.4

----------
test: Toxicokinetics in 13-week topical ocular rabbit study; settings: female, New Zealand White, in vivo, topical or ocular, 30 mg/mL/occasion, female rabbits, 30 mg/mL, 6 daily doses, Week 4, read-out: AUC0-24
MEASUREMENT KIND: AUC(0-t)
Answer with the figure and its unit, nothing else.

Look up and state reported AUC(0-t) for Cc1ccccc1OCC(=O)N[C@@H](CC(C)C)C(=O)N[C@@H](Cc1ccc(OC(=O)N2CCC(C(N)=O)CC2)cc1)C(=O)O [GW559090]
63.6 ng·h/mL

----------
assay: Toxicokinetics in 13-week topical ocular dog study; settings: male, beagle, in vivo, topical or ocular, 50 mg/mL/occasion, male dogs, 50 mg/mL, 6 daily doses, Week 13, read-out: AUC0-24
MEASUREMENT KIND: AUC(0-t) (ng·h/mL)
Give bare numbers, in ng·h/mL.

Look up and state reported AUC(0-t) for Cc1ccccc1OCC(=O)N[C@@H](CC(C)C)C(=O)N[C@@H](Cc1ccc(OC(=O)N2CCC(C(N)=O)CC2)cc1)C(=O)O
38.2

----------
assay: Toxicokinetics in 13-week topical ocular dog study; details: male, beagle, in vivo, topical or ocular, 50 mg/mL/occasion, male dogs, 50 mg/mL, 6 daily doses, Week 4, read-out: AUC0-24
MEASUREMENT KIND: AUC(0-t)

Look up and state reported AUC(0-t) for Cc1ccccc1OCC(=O)N[C@@H](CC(C)C)C(=O)N[C@@H](Cc1ccc(OC(=O)N2CCC(C(N)=O)CC2)cc1)C(=O)O [GW559090]
52.4 ng·h/mL

----------
assay: Toxicokinetics in 13-week topical ocular dog study; settings: female, beagle, in vivo, topical or ocular, 50 mg/mL/occasion, female dogs, 50 mg/mL, 6 daily doses, Day 1, read-out: Cmax
MEASUREMENT KIND: Cmax (µg/mL)
Answers are plain numbers, in µg/mL.

Look up and state reported Cmax for Cc1ccccc1OCC(=O)N[C@@H](CC(C)C)C(=O)N[C@@H](Cc1ccc(OC(=O)N2CCC(C(N)=O)CC2)cc1)C(=O)O
0.017

----------
test: Toxicokinetics in 13-week topical ocular dog study; conditions: female, beagle, in vivo, topical or ocular, 50 mg/mL/occasion, female dogs, 50 mg/mL, 12 daily doses, Day 1, read-out: AUC0-1
MEASUREMENT KIND: AUC(0-t) (ng·h/mL)
Numbers only, in ng·h/mL.

Look up and state reported AUC(0-t) for Cc1ccccc1OCC(=O)N[C@@H](CC(C)C)C(=O)N[C@@H](Cc1ccc(OC(=O)N2CCC(C(N)=O)CC2)cc1)C(=O)O
12.8

----------
assay: PK study in rabbits, ocular tissue concentrations (LC-MS/MS); format: in vivo, New Zealand White rabbits; conditions: male, New Zealand White, rabbit, bulbar conjunctiva, topical or ocular; single topical 40 μL (50 mg/mL) GW559090A, both studies; read-out: Tmax in bulbar conjunctiva
MEASUREMENT KIND: Tmax (h)
Answers are plain numbers, in h.

Look up and state reported Tmax for Cc1ccccc1OCC(=O)N[C@@H](CC(C)C)C(=O)N[C@@H](Cc1ccc(OC(=O)N2CCC(C(N)=O)CC2)cc1)C(=O)O [GW559090]
1

----------
assay: Toxicokinetics in 13-week topical ocular dog study; conditions: female, beagle, in vivo, topical or ocular, 30 mg/mL/occasion, female dogs, 30 mg/mL, 6 daily doses, Day 1
MEASUREMENT KIND: Tmax (min)
Answers are plain numbers, in min.

Look up and state reported Tmax for Cc1ccccc1OCC(=O)N[C@@H](CC(C)C)C(=O)N[C@@H](Cc1ccc(OC(=O)N2CCC(C(N)=O)CC2)cc1)C(=O)O
30

----------
test: Toxicokinetics in 13-week topical ocular dog study; settings: male, beagle, in vivo, topical or ocular, 30 mg/mL/occasion, male dogs, 30 mg/mL, 6 daily doses, Week 13
MEASUREMENT KIND: Tmax (min)
Numbers only, in min.

Look up and state reported Tmax for Cc1ccccc1OCC(=O)N[C@@H](CC(C)C)C(=O)N[C@@H](Cc1ccc(OC(=O)N2CCC(C(N)=O)CC2)cc1)C(=O)O
30

----------
assay: Toxicokinetics in 13-week topical ocular dog study; settings: male, beagle, in vivo, topical or ocular, 50 mg/mL/occasion, male dogs, 50 mg/mL, 12 daily doses, Week 13, read-out: AUC0-24
MEASUREMENT KIND: AUC(0-t)
Answer with the figure and its unit, nothing else.

Look up and state reported AUC(0-t) for Cc1ccccc1OCC(=O)N[C@@H](CC(C)C)C(=O)N[C@@H](Cc1ccc(OC(=O)N2CCC(C(N)=O)CC2)cc1)C(=O)O [GW559090]
122 ng·h/mL

----------
assay: Toxicokinetics in 13-week topical ocular dog study; details: male, beagle, in vivo, topical or ocular, 50 mg/mL/occasion, male dogs, 50 mg/mL, 6 daily doses, Week 13
MEASUREMENT KIND: Tmax (min)
Give bare numbers, in min.

Look up and state reported Tmax for Cc1ccccc1OCC(=O)N[C@@H](CC(C)C)C(=O)N[C@@H](Cc1ccc(OC(=O)N2CCC(C(N)=O)CC2)cc1)C(=O)O [GW559090]
15

----------
Test: Toxicokinetics in 13-week topical ocular dog study
Details: female, beagle, in vivo, topical or ocular, 30 mg/mL/occasion, female dogs, 30 mg/mL, 6 daily doses, Day 1, read-out: Cmax
Protocol: GW559090A was given to Beagle Dogs by topical ocular administration for 13 weeks. Animals were dosed six or twelve times per day, with one hour between doses. Treatment groups were: (1) vehicle (12 times a day), (2) 30 mg/mL/occasion given six times a day, (3) 50 mg/mL/occasion given six times a day, or (4) 50 mg/mL/occasion, given 12 times a day. […]
MEASUREMENT KIND: Cmax (ng/mL)
Numbers only, in ng/mL.

Look up and state reported Cmax for Cc1ccccc1OCC(=O)N[C@@H](CC(C)C)C(=O)N[C@@H](Cc1ccc(OC(=O)N2CCC(C(N)=O)CC2)cc1)C(=O)O
12.2

----------
assay: Toxicokinetics in 13-week topical ocular dog study; details: male, beagle, in vivo, topical or ocular, 30 mg/mL/occasion, male dogs, 30 mg/mL, 6 daily doses, Week 13, read-out: AUC0-24
MEASUREMENT KIND: AUC(0-t) (ng·h/mL)
Answers are plain numbers, in ng·h/mL.

Look up and state reported AUC(0-t) for Cc1ccccc1OCC(=O)N[C@@H](CC(C)C)C(=O)N[C@@H](Cc1ccc(OC(=O)N2CCC(C(N)=O)CC2)cc1)C(=O)O [GW559090]
22.9

----------
test: Toxicokinetics in 13-week topical ocular dog study; details: female, beagle, in vivo, topical or ocular, 50 mg/mL/occasion, female dogs, 50 mg/mL, 6 daily doses, Week 13, read-out: AUC0-1
MEASUREMENT KIND: AUC(0-t) (ng·h/mL)
Give bare numbers, in ng·h/mL.

Look up and state reported AUC(0-t) for Cc1ccccc1OCC(=O)N[C@@H](CC(C)C)C(=O)N[C@@H](Cc1ccc(OC(=O)N2CCC(C(N)=O)CC2)cc1)C(=O)O
6.64
